Test system: MS2 coat protein
Assay: apparent Kd, MS2 coat protein; higher = weaker binding; RNA-MaP array; FMN 200 µM where present
Conditions: designed as: OFF switch for flavin mononucleotide; no ligand
Entries are sorted into classes by apparent Kd as follows: L: < 30 nM; M: ≥ 30 nM and < 60 nM; H: ≥ 60 nM

{"SEQUENCE DATA": "CUCUAUCAUGUAGGAUAUGCGUGGCGAAGCUAUGCAGAAGGACAUGAGGAUCACCCAUGUCUUUCUGUCUGCGGACGGACAGGG", "QUALITATIVE LABEL": "M"}
{"SEQUENCE DATA": "GUUUUGGGAGGAUAUAUGUGGAUUAUUUUUGUAUGUUGUUUACAUGAGGAUCACCCAUGUAGAAGGUCUAGAGC", "QUALITATIVE LABEL": "H"}
{"SEQUENCE DATA": "AAGGCGGCUCAGGCCGAGUUUCGCAGAAGGGCACAUGAGGAUCACCCAUGUACCUGGUCUGAUGUGCAGGAUAUGUGAGUCAGC", "QUALITATIVE LABEL": "L"}
{"SEQUENCE DATA": "GUCAGCUCGUGAGGAUAUACAUCACUGCUUCGGCAGUGUAUUAAGAUCACAUGAGGAUCACCCAUGUAGAAGGCACGAGCUGAU", "QUALITATIVE LABEL": "M"}
{"SEQUENCE DATA": "AAGGUGUUAGGAUAUCGUAGUUUGUGGCAGACGGGAUUUUGCGAGAAGGAACAUGAGGAUCACCCAUGUCGGAU", "QUALITATIVE LABEL": "L"}
{"SEQUENCE DATA": "AAGGAUAGAGGAUAUACAUAGAUACAGAUUCAUGUAGUCCUACAUGAGGAUCACCCAUGUAGAAGGCUAUCCUA", "QUALITATIVE LABEL": "L"}
{"SEQUENCE DATA": "GAAUGAGAGCAGGAUAUCUUAUAAUUGUAUGAAAGAGAAGGGCUCACAUGAGGAUCACCCAUGUGGUCCUAGAU", "QUALITATIVE LABEL": "M"}
{"SEQUENCE DATA": "GCGAAUUAGUGAGGAUAUACAUAAUUUAAAACUGUAGAAGGCACAAUCCUCAAGACAUGAGGAUCACCCAUGUGGUAUUACGCU", "QUALITATIVE LABEL": "H"}
{"SEQUENCE DATA": "AGGUGUAGAGGAUAUCGAGUUCUUUACAUGAGGAUCACCCAUGUCCUGGGCACCCAGGACUGAGAAGGCUACACCA", "QUALITATIVE LABEL": "H"}
{"SEQUENCE DATA": "CAAAAGCUAGGAUAUGCCAAUUGUUCCUUAAGUCAAAAUAAACAUGAGGAUCACCCAUGUAGAAGGAGCCCAAC", "QUALITATIVE LABEL": "M"}
{"SEQUENCE DATA": "CAGGUAGACUGAGGAUAUACAUCUCUGGGCAAACCAGAGUAAAAUUCGACAUGAGGAUCACCCAUGUAGAAGGCAGUCUGCCUG", "QUALITATIVE LABEL": "L"}
{"SEQUENCE DATA": "AACAGUACAGGAUAUACAUGAGGAUCACCCAUGUGAGAAACCACUGGCGUACCAGAAAGUAGAAGGGUACUGGA", "QUALITATIVE LABEL": "H"}
{"SEQUENCE DATA": "CCUCCCUGAGGAUAUCCACCCUCAUACAUGAGGAUCACCCAUGUUCAUCCGUGGCUACCCGGAGAAGGCAGCUCUG", "QUALITATIVE LABEL": "M"}
{"SEQUENCE DATA": "CUUUAGCUAGGAUAUACAUGAGGAUCACCCAUGUUAGCGGUCAAUUGGGCCGCGGGUUGUAGAAGGAGCAUUAA", "QUALITATIVE LABEL": "M"}

---

Test system: MS2 coat protein
Assay: apparent Kd, MS2 coat protein; higher = weaker binding; RNA-MaP array; FMN 200 µM where present
Details: designed as: OFF switch for flavin mononucleotide; no ligand

{"SEQUENCE DATA": "GCGUAAUAGAUCCUAUUUAUCUACAUGAGGAUCACCCAUGUGCAGGAUAUGCUAUAAUUUAAUAAGCAGAAGGGCAAUUUCCGC", "apparent Kd [nM]": 73.3}
{"SEQUENCE DATA": "GUCAGCUCGUGAGGAUAUACAACACCGCUUCGGCAGUGUAUUAAGAUCACAUGAGGAUCACCCAUGUAGAAGGCACGAGCUGAU", "apparent Kd [nM]": 12.9}
{"SEQUENCE DATA": "GGAUGACAAAGUCAUCCUUAACGAACAUGAGGAUCACCCAUGUAGGAUAUGCUACUCAAAGAGUAGCAGAAGGACAUGUGUCUU", "apparent Kd [nM]": 31.1}
{"SEQUENCE DATA": "UGUCGGAGCACAGGAUAUUACAUGAGGAUCACCCAUGUAUGAACCAAUAGCUGGAAACAGCAAUGUAAGAAGGCUGCUCCGACA", "apparent Kd [nM]": 5.6}
{"SEQUENCE DATA": "GUCCUCUCUGAGGAUAUUAUCUGGUUCGAUUGAUAAGAAGGCAGUACAUGAGGAUCACCCAUGUGGGUCGUCUG", "apparent Kd [nM]": 31}
{"SEQUENCE DATA": "UGUCGGAGCAGAGGAUAUUACAUGAGGAUCACCCAUGUAUAAAAUGGAAGCUGGAAACAGCAAUGUAAGAAGGCUGCUCCGACA", "apparent Kd [nM]": 61.2}
{"SEQUENCE DATA": "AAGAAGUCAGGAUAUCCAUGGCGGCACUUGCGUGGUGGCGUGGAGAAGGGACAUGAGGAUCACCCAUGUAAAGA", "apparent Kd [nM]": 51.4}
{"SEQUENCE DATA": "GUGCCUAUCUGAGGAUAUCAACGCACUUGAGCGUGAGAAGGCAGAGGUACAUGAGGAUCACCCAUGUCCUCCAUAAAAUAAAAG", "apparent Kd [nM]": 6.65}
{"SEQUENCE DATA": "AAGUAGGUAGGAUAUACAUGGAUAUACAUUCAUGUGGACCUACAUGAGGAUCACCCAUGUAGAAGGACCUAAUA", "apparent Kd [nM]": 43.2}
{"SEQUENCE DATA": "CAUUUACAUGAGGAUCACCCAUGUGAGGAUAUGGAAUGGUUCAUUGUCUGACCUCCUUCUAGAAGGCACAUCUC", "apparent Kd [nM]": 29.6}
{"SEQUENCE DATA": "CAUACACAUGAGGAUCACCCAUGUGAGGAUAUGCGUACGUUGUCCGUAGGCGACGUGCGCAGAAGGCGCUUGGU", "apparent Kd [nM]": 57.1}
{"SEQUENCE DATA": "CUGAUGUGAGGAUAUCGGGCUACAGGCCUGCUGCUAGCAAACGAGAAGGCACAUGAGGAUCACCCAUGUGAUAG", "apparent Kd [nM]": 15.9}
{"SEQUENCE DATA": "CCCGACCUGAAGUCGAUACGGAGGAGAAGGCGCCUCCUGGGUCCACAUGAGGAUCACCCAUGUGGCGAGGAUAUCCUCAGUUUU", "apparent Kd [nM]": 11.8}
{"SEQUENCE DATA": "GCCUUACCGGUCAGGAUAUACAUUUGUCACUCCUUGUAGAAGGGACAUGAGGAUCACCCAUGUACAUUACAUUC", "apparent Kd [nM]": 29}
{"SEQUENCE DATA": "GUCAGCUCGUGAGGAUAUACAAUACUGCUUCGGCAGUGUAUUAAGAUCACAUGAGGAUCACCCAUGUAGAAGGCACGAGCUGAU", "apparent Kd [nM]": 7.88}
{"SEQUENCE DATA": "GGAGGGCCUCGAGGAUAUCGCUGCGGUCGUCUGACAUGAGGAUCACCCAUGUGAGAAGGCGAGGCUACUGACUAUGCCCGUUAU", "apparent Kd [nM]": 27.9}
{"SEQUENCE DATA": "AACAGUACAGGAUAUACAUGAGGAUCACCCAUGUGAGCGUUAAGUGCCGUAGCACAAAGUAGAAGGGUACUGGA", "apparent Kd [nM]": 29.9}
{"SEQUENCE DATA": "AAGAAGUUAGGAUAUGCAUGGCGGGACUUGCGUCGUGGCGUGCAGAAGGAACAUGAGGAUCACCCAUGUAAAGA", "apparent Kd [nM]": 29.1}
{"SEQUENCE DATA": "GUAUGACAAAGUCAUACCGCUCUGACAUGAGGAUCACCCAUGUAGGAUAUAUUAAUCAAAGAUUAAUAGAAGGACAUGUUUCUU", "apparent Kd [nM]": 35.3}
{"SEQUENCE DATA": "UUAUGUCGCGUAGGAUAUCAUUAGAGUUGUAAUUUAAUUGUAAUUUCGAUAUGAGAAGGACGUACACAUGAGGAUCACCCAUGU", "apparent Kd [nM]": 17.2}
{"SEQUENCE DATA": "GUUGUACGAGGAUAUACAUGAGGAUCACCCAUGUGUGUUGUGGGCGACGUACGUUUAUGUAGAAGGCGUGCGGC", "apparent Kd [nM]": 63.6}
{"SEQUENCE DATA": "CGCAACUCUUCACAUGUAAACAUGAGGAUCACCCAUGUAAUGAGAAGGAGGAAGAAGAGAGAUUCCUAGGAUAUCAGAGUUGCG", "apparent Kd [nM]": 6.83}
{"SEQUENCE DATA": "GUAAAUCAUGUAGGAUAUGCAUGGCGAAGCUACGCAGAAGGACAUGAGGAUCACCCAUGUUAUAGCUACCCGUUACGGUGGCAA", "apparent Kd [nM]": 100}
{"SEQUENCE DATA": "GUCAGCUCGUGAGGAUAUAUAUUAACAUGAGGAUCACCCAUGUAAGAUCAGCUUCGGCAGUUAAUAUAGAAGGCACGAGCUGAC", "apparent Kd [nM]": 168}
{"SEQUENCE DATA": "AGUCUCACUGAAGGAUAUGCAGGGUUUCAAGGGUUUCCUGCGACAUGAGGAUCACCCAUGUAAAUGCAGAAGGUCAGGACCCAA", "apparent Kd [nM]": 6.63}
{"SEQUENCE DATA": "GGUUACAAGUAAGGAUAUGUAUAUGAAACAUAUACAGAAGGUACAUGAGGAUCACCCAUGUUCUUGCAAAGCGAAUAUGUAACC", "apparent Kd [nM]": 15.1}
{"SEQUENCE DATA": "AAUUCGCGAGGAUAUACAUGAGGAUCACCCAUGUGUGUACGCAUGCACUUCAUAGGUUGUAGAAGGCGUGAGAU", "apparent Kd [nM]": 19.7}
{"SEQUENCE DATA": "UUUUUGUGAGGAUAUUAGUAGUAAAUAAAUAAAAUUAUUACUGAGAAGGCACAUGAGGAUCACCCAUGUUCCUU", "apparent Kd [nM]": 14.8}
{"SEQUENCE DATA": "UUUAUGUAAGGAUAUGCGGGCGGGCGUGAAAAUGUUUGUUUGUAGAAGGUACAUGAGGAUCACCCAUGUAGUGG", "apparent Kd [nM]": 145}
